system under test: T1, in-line fusion protein of human IL-36R extracellular domain and IL1RAcP extracellular domain expressed with … (human; mouse, UniProt Q9HB29 20-337; Q9NPH3 21-359, limits assumed)
T1 construct: not shown: mouse IgG2a Fc
T1 sequence (looked up): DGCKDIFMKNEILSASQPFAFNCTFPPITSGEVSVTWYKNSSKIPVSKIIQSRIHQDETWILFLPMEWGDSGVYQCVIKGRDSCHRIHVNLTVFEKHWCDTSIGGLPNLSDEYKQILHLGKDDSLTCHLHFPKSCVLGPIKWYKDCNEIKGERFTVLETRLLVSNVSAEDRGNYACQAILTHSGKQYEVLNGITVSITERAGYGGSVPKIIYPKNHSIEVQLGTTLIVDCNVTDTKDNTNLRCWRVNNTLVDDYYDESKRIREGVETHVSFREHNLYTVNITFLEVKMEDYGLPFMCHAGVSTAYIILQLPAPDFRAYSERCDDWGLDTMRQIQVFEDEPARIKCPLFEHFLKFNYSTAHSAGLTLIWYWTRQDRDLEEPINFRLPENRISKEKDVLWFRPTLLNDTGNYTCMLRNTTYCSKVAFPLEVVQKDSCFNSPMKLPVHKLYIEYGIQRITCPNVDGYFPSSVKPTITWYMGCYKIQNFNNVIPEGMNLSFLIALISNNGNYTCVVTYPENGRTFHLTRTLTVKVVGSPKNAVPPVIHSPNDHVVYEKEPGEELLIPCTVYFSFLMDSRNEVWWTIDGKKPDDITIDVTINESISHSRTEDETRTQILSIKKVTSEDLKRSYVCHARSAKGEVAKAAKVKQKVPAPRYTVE
assay method text: SPR Biacore 4000, mAb captured on anti-hFc, 25C
value kind: t1/2 (h)
Please give a number only; it is taken to be in h.

Examples from the recorded data:
Supply measured t1/2 of H4H14699P2 (antibody, human IgG4 S228P, kappa, V domains shown, Fully human anti-IL-36R antibody) VH: EVQLVESGGGLVQPGRSLRLSCAASGFTFDDYAIHWVRQAPGKGLEWVSVISWNSDIIGYADSVKGRFTVSRDNAKNSLYLQMNSLRTEDTALYYCAKGYNWNFFDYWGQGTLVTVSS VL: EIVLTQSPATLSLSPGERATLSCRASQSVSSYLAWYQQKPGQAPRLLIYNAANRATDIPARFSGSGSGTDFTLTISSLEPEDFAVYYCQQRSNWPLTFGGGTKVEIKR in your reply.
0.85

Item H4H14758P (antibody, human IgG4 S228P, kappa, V domains shown, Fully human anti-IL-36R antibody) VH: EVQLVESGGGLVQPGRSLRLSCAASGFTFDDYAMHWVRQAPGKGLEWVSSVRWNGGIIGYADSVKGRFTISRDNAKNSLYLQMNSLRPEDTALYYCAKDIGDVLTGYYGEYGMDVWGQGTTVTVSS VL: DIQMTQSPSSLSASVGDRVTIACRASQSITTYLNWYQQKPGKAPKLLIYAASSLQSGVPSRFSGSGSGTDFTLTISSLQPEDFATYYCQQSYISPYTFGQGTKLEIKR : provide t1/2
1.07

Quote t1/2 reported for H4H14757P (antibody, human IgG4 S228P, kappa, V domains shown, Fully human anti-IL-36R antibody) VH: EVQLVESGGGLVQPGRSLRLSCTASGFTFDDYAMHWVRQAPGKGLEWVSGIRWNGGSIGYVDSVKGRFTISRDNAKKSLHLQMNSLKTEDTALYYCAKDIGDILTGFYGEYGMDVWGQGTTVTVSS VL: DIQMTQSPSSLSASEGDRVTITCRASQSISSYLNWYQQKAGKAPNLLIYAASSLQSGVPSRFSGSGSGTEYTLTISSLQPEDFATYYCQQSYIIPYTFGQGTKLEIKR please.
1.88

Return t1/2 for the following binder: H4H14700P2 (antibody, human IgG4 S228P, kappa, V domains shown, Fully human anti-IL-36R antibody) VH: EVQLVESGGGLVQPGRSLRLSCAASGFTFDDYAMHWVRQTPGKGLEWVSVISWNSDVIAYSDSVKGRFTISRDNAKNSLYLQMNSLGTEDTALYYCAKGHNWNFFDYWGQGTLVTVSS VL: EIVLTQSPATLSLSPGERATLSCRASQSVSSYLAWYQQKPGQAPRLLIYNVANRATDIPARFSGSGSGTDFTLTISGLEPEDFAVYFCQQRSNWPLTFGGGTKVEIKR
1.53

New cases:
Quick one: give measured t1/2 for H4H14731P (antibody, human IgG4 S228P, kappa, V domains shown, Fully human anti-IL-36R antibody) VH: QLQLQESGPGLVKPSETLSLTCTVSGGSISSSNYYWGWIRQPPGKRLEWIGSIYYSGSTYYNPSLKTRVTISVDTSKNQFSLKLTSVTAADTAVYYCAREEAAALTHFDFWGQGTLVTVSS VL: DIQMTQSPSSLSASVGDRVTITCRASQSISNYLNWYQQKPGKAPKLLIFAASSLQSGVPSRFSGSGSGTDFTLTISSLQPEDFATYYCQHSHSSHPITFGQGTRLEIKR
0.95
